- Protocol details: qHTS Screen for Compounds that Selectively Target Cancer Cells with p53 Mutations: Cytotoxicity of p53ts Cells at the Permissive Temperature; further: nearly all actives have a fitted effect of over 55% in size
- Test parameters: H1299-p53A138V at 32C, ATP luminescence viability, 24 h; series mostly up to 46.1 µM
The campaign covered roughly 130,000 compounds. About 1,200 (0.92%) were called active. About 3% were inconclusive and are not listed. The call rests on the fitted dose curve; in most records, active means well fitted cell-killing curve with a large enough effect; inconclusive means small, poorly fitted or top-dose-only effect; inactive means no such curve, though single readings can be large or run the other way. Shown is part of a subset that was picked to be rich in actives.
Possible outcomes: active, inactive

INSERT INTO measurements (molecule, assigned_label) VALUES
  ('CC(=O)c1cccc(NC(=O)c2nc(-c3ccccc3)n(-c3cccc(C)c3)n2)c1', 'inactive'),
  ('CCOc1ccc(-c2nnc(-c3ccco3)o2)cc1', 'active'),
  ('COc1ccc(CNC(=O)c2ccc(NC(=O)N3CC4CCCN4c4ccccc43)cc2)cc1 (configuration not stated)', 'inactive'),
  ('CCOc1ccc(C(=O)Nc2ccncc2)cc1', 'inactive'),
  ('Cc1ccccc1N1CC(c2nc3ccccc3[nH]2)CC1=O (configuration not stated)', 'inactive'),
  ('Cc1cc(C)c(NC(=O)CCc2c(C)nc3c(c(C)nn3C(C)(C)C)c2C)c(C)c1', 'inactive'),
  ('CC(C)(C)c1csc(NC2=NS(=O)(=O)c3ccccc32)n1', 'active'),
  ('Cc1ccccc1NC(=O)c1ccccc1', 'inactive'),
  ('Cc1ccc(F)cc1NC(=O)c1cccc(N(C)C)c1', 'inactive'),
  ('Cc1ccccc1-n1c(C)cc(/C=C2\NC(=O)NC2=O)c1C', 'active'),
  ('CCN(CC)S(=O)(=O)c1cc(C(=O)Nc2ccccn2)ccc1C', 'active'),
  ('O=C(CCc1ccccc1)Nc1cccc(-c2nnc(-c3ccco3)o2)c1', 'inactive');

###

- Protocol details: qHTS Screen for Compounds that Selectively Target Cancer Cells with p53 Mutations: Cytotoxicity of p53ts Cells at the Permissive Temperature; further: nearly all actives have a fitted effect of over 55% in size
- Test parameters: H1299-p53A138V at 32C, ATP luminescence viability, 24 h; series mostly up to 46.1 µM
The campaign covered roughly 130,000 compounds. About 1,200 (0.92%) were called active. Another 3% or so got no clear call; they are omitted. The call rests on the fitted dose curve; in most records, active means well fitted cell-killing curve with a large enough effect; inconclusive means small, poorly fitted or top-dose-only effect; inactive means no such curve, though single readings can be large or run the other way. Shown is part of a subset that was picked to be rich in actives.
Outcomes: active, inactive

INSERT INTO measurements (molecule, assigned_label) VALUES
  ('CCc1ccc(-c2nnn(Cc3nn[nH]n3)n2)cc1', 'inactive'),
  ('COc1cccc(NC(=O)CSC2=Nc3ccccc3C3=NC(CC(=O)NC4CCCCC4)C(=O)N23)c1 (centres undefined)', 'inactive'),
  ('Cc1nn2c3cc(N4CCOCC4)ccc3nc2c2ccccc12', 'active'),
  ('CC1CCCN(c2nc3c(S(=O)(=O)c4ccc(C(C)C)cc4)nnn3c3ccsc23)C1 (centres undefined)', 'inactive'),
  ('Cc1nnc(NC(=O)CSc2nc3c([nH]c4ccccc43)c(=O)n2-c2cccc(Cl)c2)s1', 'inactive'),
  ('Cc1c(NC(=O)C(C)(C)C)cccc1-c1nc2ccccc2s1', 'active'),
  ('O=C1Nc2c(Br)cc(Br)cc2C1(O)N1CCOCC1 (centres undefined)', 'active'),
  ('CCn1c(CN2CCC(C)CC2)nc2cc(NC(=O)c3ccccc3[N+](=O)[O-])ccc21', 'inactive'),
  ('COc1ccc(C(=O)Nc2onc3c2CCCC3)cc1', 'active'),
  ('CCc1ccccc1NC(=O)c1cccs1', 'inactive'),
  ('COc1ccc(S(=O)(=O)NCC(c2ccc(N(C)C)cc2)N2CCc3ccccc32)cc1OC (centres undefined)', 'inactive'),
  ('O=C(O)c1ccc(NC(=O)c2cccs2)cc1', 'inactive'),
  ('COc1cc(OC)c(OC)cc1/C=C/c1nc2cc3ccccc3cc2c(=O)n1-c1ccc(F)c(Cl)c1', 'inactive'),
  ('CCOc1ccc(N(Cc2ccccc2)C(=O)c2nc(SCC)ncc2Cl)cc1', 'inactive'),
  ('Cc1nn2c3ccccc3nc2n(C)c1=O', 'inactive'),
  ('CCOc1ccc(CNCCSc2nnnn2C)cc1', 'inactive'),
  ('CC(=O)Nc1cccc(NC(=O)CSc2cn(CC(=O)N3CCCC3)c3ccccc23)c1', 'inactive'),
  ('Cc1cc(=O)c2cc(C(=O)Nc3cccc(C)c3C)ccc2[nH]1', 'inactive'),
  ('CCOC(=O)c1cc(-c2ccccc2)n(CCC(=O)Nc2ccccc2CC)c1C', 'inactive'),
  ('COc1ccc(N2C(=O)CSC23C(=O)N(Cc2cccc(F)c2)c2ccccc23)cc1Cl (centres undefined)', 'inactive'),
  ('COc1cc(NC(=O)C2CCN(c3cnccn3)CC2)cc(OC)c1', 'inactive'),
  ('COc1ccc(-c2nnc(SCC(=O)Nc3ccc(C(C)C)cc3)nc2-c2ccc(OC)c(OC)c2)cc1OC', 'inactive'),
  ('COc1ccccc1CNC(=O)c1ccc(NC(=O)N2CC(C)Sc3ccccc32)cc1 (centres undefined)', 'inactive'),
  ('CCOc1ccccc1NC(=O)CN1CCCN(Cc2cccc(Cl)c2)S1(=O)=O', 'inactive'),
  ('COc1cc(NC(=O)c2noc3c2CSc2ccccc2-3)cc(OC)c1OC', 'inactive'),
  ('CCC(C(=O)Nc1cccc(-c2nc3cccnc3s2)c1C)c1ccccc1 (centres undefined)', 'inactive'),
  ('CCOc1ccccc1C(=O)NCC(c1ccc(N(C)C)cc1)N1CCCC1 (centres undefined)', 'inactive'),
  ('Cn1c(COc2ccccc2C(C)(C)C)nc2ccccc21', 'inactive'),
  ('O=C(CSc1nnc(CNC(=O)c2ccccc2)n1-c1ccc(F)cc1)Nc1ccccc1F', 'inactive'),
  ('OCCCN1c2ccccc2Nc2nnc(-c3ccccc3)cc21', 'active'),
  ('CCOc1cc(C2c3c(-c4ccc(Br)cc4)n[nH]c3C(=O)N2c2ccc(Cl)cc2)ccc1O (centres undefined)', 'inactive'),
  ('Cc1cccc(-n2ncc3c(N4CCc5ccccc54)ncnc32)c1', 'inactive'),
  ('COc1ccc(-n2ncc3c(N4CCCc5ccccc54)ncnc32)cc1', 'active'),
  ('CCOC(=O)N1CCc2c(sc(NCc3cccc(F)c3)c2C(=O)Nc2ccccc2OCC)C1', 'inactive'),
  ('Cc1csc(-c2nc3ccccc3n2C)n1', 'active'),
  ('Cc1cc(C)c2c(n1)nn1c(N3CCOCC3)cc(C)nc21', 'inactive'),
  ('Cc1c(NC(=O)Cc2ccccc2)cccc1-c1nc2cccnc2s1', 'inactive'),
  ('O=C(c1ccc(Cl)cc1)n1nc(-c2cccnc2)nc1NCc1ccc(F)cc1', 'inactive'),
  ('Cn1c(=O)c(C(=O)O)nn(-c2ccccc2)c1=O', 'inactive'),
  ('CCC(CC)c1nnc(NS(=O)(=O)Cc2ccccc2)s1', 'inactive'),
  ('COc1ccccc1NC(=O)C(=O)c1cc(C)n(-c2ccccc2F)c1C', 'inactive'),
  ('O=C(Nc1cc(C(F)(F)F)ccc1Cl)c1ccc2c(c1)CCN2S(=O)(=O)c1ccccc1', 'inactive'),
  ('CC1CCc2noc(NC(=O)c3ccc([N+](=O)[O-])cc3)c2C1 (centres undefined)', 'inactive'),
  ('COc1ccc(-c2nc3sc(CCNS(=O)(=O)c4ccc(F)c(C)c4)c(C)n3n2)cc1', 'inactive');

###

- Protocol details: qHTS Screen for Compounds that Selectively Target Cancer Cells with p53 Mutations: Cytotoxicity of p53ts Cells at the Permissive Temperature; further: nearly all actives have a fitted effect of over 55% in size
- Test parameters: H1299-p53A138V at 32C, ATP luminescence viability, 24 h; series mostly up to 46.1 µM
About 1,200 (0.92%) of roughly 130,000 compounds were called active. Inconclusive results (about 3%) are left out. Calls come from the whole dose curve; as a rule, active = well fitted cell-killing curve with a large enough effect; inconclusive = small, poorly fitted or top-dose-only effect; inactive = no such curve, though single readings can be large or run the other way. Shown is part of a subset that was picked to be rich in actives.
Possible outcomes: active, inactive

INSERT INTO results (chemical_structure, assigned_label) VALUES
  ('Cc1ccc2cc3cc(C(=O)N4CCCCCC4)oc3nc2c1', 'active'),
  ('Cn1c(=NC(=O)c2cnccn2)sc2ccccc21', 'active'),
  ('O=C(Nc1cccc(NC(=O)c2ccco2)c1)c1cnccn1', 'inactive'),
  ('Cc1ccc(C(=O)N2CCCCCC2)cc1Br', 'inactive'),
  ('O=C(NC1CCCCC1)c1ccc(Cn2c(SCc3ccccc3)nc3cccnc32)cc1', 'inactive'),
  ('NC(=O)CSc1oc(-c2cccs2)nc1S(=O)(=O)c1ccccc1', 'inactive'),
  ('Cn1c(=NC(=O)CSCC(=O)N2CCOCC2)sc2ccccc21', 'inactive'),
  ('CCOC(=O)c1nnn(CC(=O)NC(=O)Nc2ccccc2F)c1C(=O)OCC', 'inactive'),
  ('Cn1c(=NC(=O)CSCC(=O)N2CCCCC2)sc2ccccc21', 'inactive'),
  ('O=C(Nc1ccc(NC(=O)c2cccs2)cn1)c1ccco1', 'active');

###

- Protocol details: qHTS Screen for Compounds that Selectively Target Cancer Cells with p53 Mutations: Cytotoxicity of p53ts Cells at the Permissive Temperature; further: nearly all actives have a fitted effect of over 55% in size
- Test parameters: H1299-p53A138V at 32C, ATP luminescence viability, 24 h; series mostly up to 46.1 µM
The campaign covered roughly 130,000 compounds. About 1,200 (0.92%) were called active. Roughly 3% stayed inconclusive and do not appear here. The call rests on the fitted dose curve; in most records, active means well fitted cell-killing curve with a large enough effect; inconclusive means small, poorly fitted or top-dose-only effect; inactive means no such curve, though single readings can be large or run the other way. The list comes from a sample in which actives are over-represented; it also holds close analogues and randomly drawn compounds.
Classes used: class 1 = active, class 0 = inactive

INSERT INTO measurements (molecule, assigned_label) VALUES
  ('Cc1ccc(S(=O)(=O)/N=C(/Nc2ccccn2)c2ccc(Cl)cc2)cc1', 'class 0'),
  ('O=C(NCCc1ccc(Cl)cc1)c1ccc2nc(CCc3ccccc3)oc2c1', 'class 0'),
  ('COc1ccccc1CNC(=O)C(=O)NCC(c1cccs1)S(=O)(=O)c1cccs1 (stereo unspecified)', 'class 0'),
  ('Cc1ccccc1Nc1nn2c(=O)c3ccc(C(=O)NCCc4ccc(Cl)cc4)cc3nc2s1', 'class 1'),
  ('COc1ccc2nc(Nc3nc4cc5c(cc4s3)OCCO5)sc2c1', 'class 0'),
  ('c1c2c(cc3sc(N4CCCCC4)nc13)OCCO2', 'class 1'),
  ('CCSc1ncc(Cl)c(C(=O)Nc2cc(C)ccc2C)n1', 'class 0'),
  ('Cn1c(=O)c(C(=O)Nc2ncccn2)c(O)c2ccccc21', 'class 1'),
  ('Fc1ccc2nc(N3CCCCC3)sc2c1', 'class 0'),
  ('Cc1ccc(NC(=O)c2nc(S(=O)(=O)Cc3cccc(C)c3)ncc2Cl)cc1', 'class 1'),
  ('O=C(Nc1ncccn1)c1cccs1', 'class 0');
